- Assay Procedure: Clinical study: plasma concentrations after OTF administration
- Condition Info: human, plasma, other: sublingual or buccal (all data), 100 mg, Cmax plasma concentration, All data, 2 × 50 mg OTF based on formulation 15
Readout Kind: Cmax (ng/mL)
Give bare numbers, in ng/mL.

What value of measured Cmax is listed for CNC1(c2ccccc2Cl)CCCCC1=O (racemic) [(S)-ketamine] ?
143

* * *

- Assay Procedure: Clinical study: pharmacokinetic model (NONMEM), Tmax, AUC, oral bioavailability
- Condition Info: human, plasma, other: sublingual or buccal, 100 mg
Readout Kind: Tmax (min)
Numbers only, in min.

What value of measured Tmax is listed for CNC1(c2ccccc2Cl)CCCCC1=O (racemic) [(S)-ketamine] ?
19.1

* * *

- Assay Procedure: Clinical study: pharmacokinetic model (NONMEM), Tmax, AUC, oral bioavailability
- Condition Info: human, plasma, other: sublingual or buccal, 50 mg
Readout Kind: AUC(0-t) (ng·h/mL)
Answers are plain numbers, in ng·h/mL.

What value of measured AUC(0-t) is listed for CNC1(c2ccccc2Cl)CCCCC1=O (racemic) [(S)-ketamine] ?
139

* * *

- Assay Procedure: Clinical study: plasma concentrations after OTF administration
- Condition Info: human, plasma, other: sublingual or buccal (all data), 50 mg, Cmax plasma concentration, All data, 50 mg OTF based on formulation 15
Readout Kind: Cmax
Please answer in the form of a number followed by its unit of measurement.

What value of measured Cmax is listed for CNC1(c2ccccc2Cl)CCCCC1=O (racemic) [(S)-ketamine] ?
101 ng/mL

* * *

- Assay Procedure: Clinical study: plasma concentrations after OTF administration
- Condition Info: human, plasma, 50 mg, Cmax plasma concentration, Sublingually, 50 mg OTF based on formulation 15
Readout Kind: Cmax (ng/mL)
Give bare numbers, in ng/mL.

What value of measured Cmax is listed for CNC1(c2ccccc2Cl)CCCCC1=O (racemic) [(S)-ketamine] ?
95

* * *

- Assay Procedure: Clinical study: plasma concentrations after OTF administration
- Condition Info: human, plasma, 100 mg, Cmax plasma concentration, Sublingually, 2 × 50 mg OTF based on formulation 15
Readout Kind: Cmax
Please answer in the form of a number followed by its unit of measurement.

What value of measured Cmax is listed for CNC1(c2ccccc2Cl)CCCCC1=O (racemic) [(S)-ketamine] ?
138 ng/mL

* * *

- Assay Procedure: Clinical study: pharmacokinetic model (NONMEM), Tmax, AUC, oral bioavailability
- Condition Info: human, plasma, other: sublingual or buccal, 50 mg
Readout Kind: Tmax (min)
Numbers only, in min.

What value of measured Tmax is listed for CNC1(c2ccccc2Cl)CCCCC1=O (racemic) [(S)-ketamine] ?
18.8
